# Test system: HCT116 colon cancer cells
# measurement_description: CellTiter-Glo viability assay, HCT116 cells
# Assay type: cell-based, human
# run_parameters: 50% viability after 72-hr incubation, n = 3
Positions of bridges follow the written chain, without caps; N, C: chain ends. Non-standard residues stand in square brackets, D forms with d. Residues, ends and D or L forms follow the SMILES beside them. *: point of attachment. NMe2Val = CC(C)[C@@H](C(=O)*)N(C)C; NMeI = CC[C@H](C)[C@H](NC)C(=O)O; NMeT = CN[C@H](C(=O)O)[C@@H](C)O; NMeL = CN[C@@H](CC(C)C)C(=O)O; dHiv = CC(C)[C@@H](O)C(=O)O; NMeS = CN[C@@H](CO)C(=O)O; dNMeA = CN[C@H](C)C(=O)O
In plain terms, low CC50, meaning strictly below 4 nM, gives 1, and everything else gives 0.

Data request: Criterion: CC50 strictly below 4 nM. Is it met by CC[C@H](C)[C@H]1C(=O)N[C@@H](C)C(=O)N(C)[C@@H](CC(C)C)C(=O)N[C@@H](Cc2ccc(OC)cc2)C(=O)N(C)[C@H](C)C(=O)O[C@H](C)[C@H](N(C)C(=O)[C@H](CC(C)C)N(C)C(=O)[C@H](COC)N(C)C(=O)[C@H](OC(=O)[C@H](C(C)C)N(C)C)C(C)C)C(=O)N(C)[C@@H](COC)C(=O)N1C [Coibamide A (1a), coibamide A] (NMe2Val-[dHiv][NMeS](Me)[NMeL][NMeT][NMeS](Me)[NMeI]A[NMeL]Y(Me)[dNMeA]; ester 4-C) ?
Data returned: 1

Data request: Does the reported CC50 of CC[C@H](C)[C@H]1C(=O)N[C@@H](C)C(=O)N(C)[C@@H](CC(C)C)C(=O)N[C@@H](Cc2ccc(-c3ccccc3)cc2)C(=O)N(C)[C@H](C)C(=O)N[C@H](C)[C@H](N(C)C(=O)[C@H](CC(C)C)N(C)C(=O)[C@H](COC)N(C)C(=O)[C@H](OC(=O)[C@H](C(C)C)N(C)C)C(C)C)C(=O)N(C)[C@@H](COC)C(=O)N1C [Peptide 16c] stay below 4 nM?
Data returned: 1

Data request: Here's an entry: CC[C@H](C)[C@H]1C(=O)N[C@@H](C)C(=O)N(C)[C@@H](CC(C)C)C(=O)N[C@@H](Cc2ccc(OC)cc2)C(=O)N(C)[C@H](C)CC[C@H](C)[C@H](N(C)C(=O)[C@H](CC(C)C)N(C)C(=O)[C@H](C)N(C)C(=O)[C@H](OC(=O)[C@H](C(C)C)N(C)C)C(C)C)C(=O)N(C)[C@@H](C)C(=O)N1C [Peptide 3a] . Is its CC50 below 4 nM?
Data returned: 0

Data request: Input CC[C@H](C)[C@H]1C(=O)N[C@@H](C)C(=O)N(C)[C@@H](CC(C)C)C(=O)N[C@@H](Cc2ccc(OC)cc2)C(=O)N(C)[C@H](C)C(=O)N[C@H](C)[C@H](N(C)C(=O)[C@H](CC(C)C)N(C)C(=O)[C@H](COC)N(C)C(=O)[C@H](OC(=O)[C@H](C(C)C)N(C)C)C(C)C)C(=O)N(C)[C@@H](COC)C(=O)N1C [Peptide 16b] ; condition: CC50 strictly below 4 nM. Does it hold?
Data returned: 1
